Recorded values, source paper PMC8765781.

test system: wild-type ZIKV (Ugandan MR766 strain) in Vero cells; assay: ZIKV cytopathic effect (CPE) inhibition qHTS assay, CellTiter-Glo readout; assay type: cell-based, Zika virus; details: Zika virus, Vero, read-out: Log AC50 (M) (converted)
measured_attribute: log10 of AC50 (log10 of the value in M)
Transform log10 | Measure AC50 | Unit M

For orientation, consider the following solved cases.
molecule: C=C1C(=O)O[C@@H]2C(OC(=O)/C(C)=C\C)/C(C)=C\C(=O)/C=C(\C)C[C@H](O)[C@@H]12 (stereo partly drawn)
log10 of AC50: -4.29
--
molecule: CC(/C=C/C=C(\C)C(=O)O[C@@H]1O[C@H](CO[C@@H]2O[C@H](CO)[C@@H](O)[C@H](O)[C@H]2O)[C@@H](O)[C@H](O)[C@H]1O)=C\C=C\C=C(C)\C=C\C=C(/C)C(=O)O[C@@H]1C[C@](O)(C(=O)O)C[C@@H](O)[C@H]1OC(=O)/C=C/c1ccc(O)c(O)c1
log10 of AC50: -5.16
--
molecule: C[C@H]1[C@H](C)CC[C@]2(C(=O)O)CC[C@]3(C)C(=CC[C@@H]4[C@@]5(C)C[C@@H](O)[C@H](O)[C@@](C)(CO)[C@@H]5CC[C@]43C)[C@H]12
log10 of AC50: -4.24
--
molecule: CC1(C)CC=C(c2cnc3ccccc3c2)c2cc(C(=O)Nc3ccc(C(=O)O)cc3)ccc21
log10 of AC50: -4.29
--
molecule: Cc1cc2c(F)c(Oc3ncnn4cc(OCC(C)O)c(C)c34)ccc2[nH]1 (stereo not drawn)
log10 of AC50: -4.19
--
molecule: C=C[C@H]1[C@H](O[C@@H]2O[C@H](CO)[C@@H](O)[C@H](O)[C@H]2O)OC=C(C(=O)OC)[C@H]1CCO
log10 of AC50: -4.69
--
molecule: CCC(C)C1NC(=O)C(C(C)=O)=C1O (stereo not drawn)
log10 of AC50: -4.68
--
molecule: C=C(C)C(=O)O[C@H]1[C@@H]2[C@H](C)C(=O)O[C@@H]2C[C@@H](C)[C@@H]2C=CC(=O)[C@]21C
log10 of AC50: -4.34
--
molecule: Cc1cc2sc(NC(=O)Cc3ccccc3)nc2cc1Cl
log10 of AC50: -4.24
--
molecule: COc1cccc(C)c1C(=O)O[C@@H]1C[C@H](O[C@H]2[C@H](O)C[C@H](O[C@@H]3CCC[C@H]4[C@H]3C=C[C@@H]3CCCC/C=C/[C@H]5C=C(C(=O)O)[C@@H](C)C[C@@]56OC(=O)C(=C6O)OC(=O)[C@@]34C)O[C@@H]2C)O[C@H](C)[C@H]1O
log10 of AC50: -4.91

Please go through the list and note log10 of AC50 for each molecule.
1. C=C1C(=O)CC2OC2(C)CC2OC(=O)C(=C)C2C(O)C1OC(=O)/C(C)=C\C (stereo not drawn)
2. CCC[S+](=O)([O-])Nc1ccc(F)c(C(=O)c2c[nH]c3ncc(-c4ccc(Cl)cc4)cc23)c1F

1: -4.34; 2: -5.84
